Tested on: CCRIS mutagenicity, Ames/micronucleus/aberration tests
Run Description: CCRIS mutagenicity studies
Test Conditions: Test System: AMES SALMONELLA TYPHIMURIUM; Strain/Indicator: TA100; Metabolic Activation: HAMSTER, LIVER, S-9, AROCLOR 1254 (30%); Method: PREINCUBATION
The source made the active and inactive calls. The rule behind the calls is not given here.
Classes used: t = active, f = inactive

1. C1=C\CC/C=C\CC/1.C1=C\CC/C=C\CC/1.[Ni]	f
2. Nc1ccc(N=Nc2ccccc2)cc1	t
3. CCn1cc(C(=O)O)c(=O)c2ccc(C)nc21	f
4. N[C@@H](Cc1ccc(N(CCCl)CCCl)cc1)C(=O)O	t
5. CC(C)[N+](C)(CCOC(=O)C1c2ccccc2Oc2ccccc21)C(C)C	f
6. Cc1ccc(N)cc1	t
7. CCN(C(=O)N(CC)c1ccccc1)c1ccccc1	f
8. CCC(C)COC(=O)/C=C/c1ccc(N=Cc2ccc(OC)cc2)cc1 (stereo not given)	t
9. Oc1cccc2cccnc12	f
10. CNc1ccccc1	f
11. CCCCC(CC)CNCC(CC)CCCC (stereo not given)	f
12. O=[N+]([O-])CCO	f
13. CC(Cl)Cl	f
14. C=CC(C)C#N (stereo not given)	f
15. Cc1cc(=O)[nH]c(=S)[nH]1	f
